Origin of the recorded values: patent US20180320179A1

// ED50 (ppm) SEPTTR-184 3DC lookup, one value per entry
tested on: Zymoseptoria tritici (SEPTTR-184); assay: Cyp51 dsRNA tile (fragment) foliar application bioassay (Example 6); type: in vivo; settings: 3 days curative; calculated from disease control

Worked examples follow.
molecule | ED50 (ppm) SEPTTR-184 3DC
MgCyp51-T4: dsRNA tile of Zymoseptoria tritici Cyp51, 178 bp, location 647-824 (nucleic acid, listed as Zymoseptoria tritici) AGGGCTTCGACTCGTCTTTCGCGGACCTCTACCACTACCTCGATATGGGATTCACACCGATCAACTTTATGCTTCCGTGGGCGCCCCTTCCCCAGAACCGACGCCGCGATTATGCGCAGAAGAAGATGTCCGAGACATACATGTCGATCATTCAGAAGAGACGAGAGTCCAAAACGGG | <3.125 ppm
MgCyp51-T8: dsRNA tile of Zymoseptoria tritici Cyp51, 242 bp, location 1151-1392 (nucleic acid, listed as Zymoseptoria tritici) TTCTGCGCAAGGTCAAGTCTCCCATGCCCATCGAAGGTACGGCATACGTCATTCCAACCACCCACACTCTTCTGGCCGCTCCGGGCACAACGAGCCGCATGGACGAGCACTTTCCCGACTGCCTCCATTGGGAGCCGCATCGATGGGACGAGAGCCCGTCCGAGAAATACAAGCACCTGTCCCCGACGACTGCCCTAGGAAGCATCGCCGAGGAGAAAGAAGACTATGGCTACGGCCTGGTA | <3.125 ppm
MgCyp51-T10: dsRNA tile of Zymoseptoria tritici Cyp51, 172 bp, location 345-516 (nucleic acid, listed as Zymoseptoria tritici) GGACGTCAACGCGGAGGAGATATACAGCCCGCTGACCACTCCTGTCTTTGGCAAGGATGTGGTTTATGATTGTCCCAATTCGAAGCTCATGGAGCAGAAGAAGTTCGTCAAGTACGGCCTCACAACCTCTGCCCTCCAGTCCTACGTGACCTTGATCGCCGCCGAGACCCGC | 32.692 ppm

Requested read-out: ED50 (ppm) SEPTTR-184 3DC. Entry: MgCyp51-T9: dsRNA tile of Zymoseptoria tritici Cyp51, 172 bp, location 1-172 (nucleic acid, listed as Zymoseptoria tritici, double-stranded RNA) ATGGGTCTCCTCCAGGAAGTCCTCGCGCAGTTCGACGCGCAATTCGGCCAGACCAGCCTCTGGAAACTTGTCGGACTTGGATTCCTCGCCTTCAGCACGCTCGCCATCCTCCTCAATGTCCTCTCACAACTTCTCTTCCGTGGCAAGTTGTCCGATCCGCCACTCGTATTCC <3.125 ppm
